Where these numbers come from: the supplement of paper PMC9112550

system: Escherichia coli TOP10; experiment: shrunken log2 fold change of peptide-encoding DNA abundance (4.5 h post-induction vs induction); higher = less antimicrobial activity (less host growth inhibition); details: time post-induction: 4.5 h; library: site-saturation at positions 5, 18, 19, 20
Answer each item with its documented shrunken log2 fold change.
Numbers only.

Some entries whose results are on file:
- RESIDUES: "RRIRMRPPRLPRPRPRPAGNPRP"
  ASSAY_SYSTEM: "Escherichia coli TOP10"
  shrunken log2 fold change: 0.396
- RESIDUES: "RRIRERPPRLPRPRPRPINAPRP"
  ASSAY_SYSTEM: "Escherichia coli TOP10"
  shrunken log2 fold change: -0.129
- RESIDUES: "RRIRSRPPRLPRPRPRPPFLPRP"
  ASSAY_SYSTEM: "Escherichia coli TOP10"
  shrunken log2 fold change: -0.0588

Take each entry in turn and give its shrunken log2 fold change.
1. RRIRQRPPRLPRPRPRPHHNPRP
2. RRIRLRPPRLPRPRPRPYAFPRP
3. RRIRNRPPRLPRPRPRPYAPPRP
4. RRIRRRPPRLPRPRPRPQNTPRP
5. RRIRKRPPRLPRPRPRPAEAPRP

Response line:
1: -0.706; 2: 0.0808; 3: -0.702; 4: -0.218; 5: 0.959

###

tested on: Escherichia coli TOP10; assay: shrunken log2 fold change of peptide-encoding DNA abundance (4.5 h post-induction vs induction); higher = less antimicrobial activity (less host growth inhibition); settings: time post-induction: 4.5 h; library: site-saturation at positions 5, 18, 19, 20
Can you tell me shrunken log2 fold change for the items I'm about to list?
One number for each entry.

Field: example entries. Status: answers known.
- RESIDUES: "RRIRPRPPRLPRPRPRPNVFPRP"
  ASSAY_SYSTEM: "Escherichia coli TOP10"
  shrunken log2 fold change: -0.21
- RESIDUES: "RRIRTRPPRLPRPRPRPDKVPRP"
  ASSAY_SYSTEM: "Escherichia coli TOP10"
  shrunken log2 fold change: -0.0275
- RESIDUES: "RRIRERPPRLPRPRPRPVFGPRP"
  ASSAY_SYSTEM: "Escherichia coli TOP10"
  shrunken log2 fold change: -0.0574

Quick one: give me shrunken log2 fold change for each item below, same order please.
1. RRIRTRPPRLPRPRPRPMGPPRP
2. RRIRERPPRLPRPRPRPCFEPRP
3. RRIRHRPPRLPRPRPRPIPDPRP

Response line:
1. -0.114
2. -0.258
3. -0.275

// for each sequence in input: emit shrunken log2 fold change
1. RRIRKRPPRLPRPRPRPWFRPRP
2. RRIRSRPPRLPRPRPRPWMFPRP
3. RRIRRRPPRLPRPRPRPEHHPRP
4. RRIRYRPPRLPRPRPRPLWPPRP
5. RRIRCRPPRLPRPRPRPLRHPRP
6. RRIRCRPPRLPRPRPRPLMVPRP
7. RRIRPRPPRLPRPRPRPGCEPRP

Response line:
1: 0.00108; 2: -0.0604; 3: 0.202; 4: -0.135; 5: 0.479; 6: -0.519; 7: 0.113

###

tested on: Escherichia coli TOP10; assay: shrunken log2 fold change of peptide-encoding DNA abundance (4.5 h post-induction vs induction); higher = less antimicrobial activity (less host growth inhibition); conditions: time post-induction: 4.5 h; library: site-saturation at positions 5, 18, 19, 20
Exercise: state measured shrunken log2 fold change for each of the sequences provided.
Give bare numbers.

- RESIDUES: "RRIRMRPPRLPRPRPRPQERPRP"
  MEASUREMENT_KIND: "shrunken log2 fold change"
  OBSERVED: -0.00224
- RESIDUES: "RRIRCRPPRLPRPRPRPTLQPRP"
  MEASUREMENT_KIND: "shrunken log2 fold change"
  OBSERVED: 0.279

Respectfully, I request shrunken log2 fold change for each entry included below.
1. RRIRGRPPRLPRPRPRPDERPRP
2. RRIRGRPPRLPRPRPRPEIIPRP

Response line:
1. 0.104
2. 1.5

###

tested on: Escherichia coli TOP10; test: shrunken log2 fold change of peptide-encoding DNA abundance (4.5 h post-induction vs induction); higher = less antimicrobial activity (less host growth inhibition); conditions: time post-induction: 4.5 h; library: site-saturation at positions 5, 18, 19, 20
Please respond with reported shrunken log2 fold change for every item in the list.
Answers are plain numbers.

Examples from the recorded data:
- RESIDUES: "RRIRFRPPRLPRPRPRPAGFPRP"
  ASSAY_SYSTEM: "Escherichia coli TOP10"
  OBSERVED: 0.0553
- RESIDUES: "RRIRKRPPRLPRPRPRPIILPRP"
  ASSAY_SYSTEM: "Escherichia coli TOP10"
  OBSERVED: -0.11
- RESIDUES: "RRIRCRPPRLPRPRPRPHPMPRP"
  ASSAY_SYSTEM: "Escherichia coli TOP10"
  OBSERVED: -0.243
- RESIDUES: "RRIRMRPPRLPRPRPRPHVAPRP"
  ASSAY_SYSTEM: "Escherichia coli TOP10"
  OBSERVED: 0.00497

Dear colleague, could you send me shrunken log2 fold change for each of the items below? Thanks.
1. RRIRRRPPRLPRPRPRPRMLPRP
2. RRIRHRPPRLPRPRPRPRICPRP
3. RRIRNRPPRLPRPRPRPNYDPRP
4. RRIRLRPPRLPRPRPRPPNSPRP
5. RRIRPRPPRLPRPRPRPLHLPRP
6. RRIRCRPPRLPRPRPRPVWWPRP
7. RRIRCRPPRLPRPRPRPSRLPRP
8. RRIRARPPRLPRPRPRPLFRPRP

Response line:
1. 0.486
2. 0.0205
3. -0.222
4. 0.0409
5. -0.311
6. 0.261
7. 0.0589
8. 0.881

Hey, can you go through the list below and give me shrunken log2 fold change for every item?
1. RRIRARPPRLPRPRPRPKQRPRP
2. RRIRTRPPRLPRPRPRPNDEPRP
3. RRIRFRPPRLPRPRPRPQLWPRP

Response line:
0.558
-0.0966
0.338

###

test system: Escherichia coli TOP10; experiment: shrunken log2 fold change of peptide-encoding DNA abundance (4.5 h post-induction vs induction); higher = less antimicrobial activity (less host growth inhibition); conditions: time post-induction: 4.5 h; library: site-saturation at positions 5, 18, 19, 20
MEASUREMENT_KIND: shrunken log2 fold change
Answers are plain numbers.

Reference set (6 entries):
- RESIDUES: "RRIRTRPPRLPRPRPRPDMCPRP"
  shrunken log2 fold change: -0.0287
- RESIDUES: "RRIRPRPPRLPRPRPRPTPDPRP"
  shrunken log2 fold change: 0.356
- RESIDUES: "RRIRFRPPRLPRPRPRPQFWPRP"
  shrunken log2 fold change: 0.206
- RESIDUES: "RRIRARPPRLPRPRPRPRNRPRP"
  shrunken log2 fold change: 0.0657
- RESIDUES: "RRIRMRPPRLPRPRPRPWRTPRP"
  shrunken log2 fold change: 0.324
- RESIDUES: "RRIRLRPPRLPRPRPRPTFAPRP"
  shrunken log2 fold change: 0.394

For the 4 sequences below, give their shrunken log2 fold change values.
1. RRIRDRPPRLPRPRPRPRCSPRP
2. RRIRLRPPRLPRPRPRPNKDPRP
3. RRIRLRPPRLPRPRPRPCTAPRP
4. RRIRFRPPRLPRPRPRPWNIPRP

Response line:
1: -0.0967; 2: -0.683; 3: -0.139; 4: -0.0965

// each sequence listed below needs its shrunken log2 fold change
1. RRIRFRPPRLPRPRPRPFQNPRP
2. RRIRGRPPRLPRPRPRPYEQPRP

Response line:
1: -0.041; 2: -0.157

Batch request: shrunken log2 fold change for each of the following sequences.
1. RRIRGRPPRLPRPRPRPPNIPRP
2. RRIRVRPPRLPRPRPRPTEPPRP

Response line:
1. 0.083
2. 0.128

###

system: Escherichia coli TOP10; assay: shrunken log2 fold change of peptide-encoding DNA abundance (4.5 h post-induction vs induction); higher = less antimicrobial activity (less host growth inhibition); conditions: time post-induction: 4.5 h; library: site-saturation at positions 5, 18, 19, 20;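 also: peptides expressed intracellularly from a pBAD plasmid library in pooled LB shake-flask culture, induced with 0.3% L-arabinose, DNA abundance read by NGS, three biological replicates, DESeq2 with apeglm shrinkage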
Please use rule met whenever shrunken log2 fold change is not below -0.1, and rule not met whenever it is.

These recorded examples may help you get a feel for the data.
- RESIDUES: "RRIRQRPPRLPRPRPRPGVRPRP"
  ASSAY_SYSTEM: "Escherichia coli TOP10"
  ASSIGNED_CLASS: "rule met"
- RESIDUES: "RRIRYRPPRLPRPRPRPDGEPRP"
  ASSAY_SYSTEM: "Escherichia coli TOP10"
  ASSIGNED_CLASS: "rule not met"
- RESIDUES: "RRIRQRPPRLPRPRPRPKWQPRP"
  ASSAY_SYSTEM: "Escherichia coli TOP10"
  ASSIGNED_CLASS: "rule met"
- RESIDUES: "RRIRYRPPRLPRPRPRPGENPRP"
  ASSAY_SYSTEM: "Escherichia coli TOP10"
  ASSIGNED_CLASS: "rule met"
- RESIDUES: "RRIRERPPRLPRPRPRPWKVPRP"
  ASSAY_SYSTEM: "Escherichia coli TOP10"
  ASSIGNED_CLASS: "rule met"
- RESIDUES: "RRIRRRPPRLPRPRPRPGSQPRP"
  ASSAY_SYSTEM: "Escherichia coli TOP10"
  ASSIGNED_CLASS: "rule met"

Prompt line: Could you tell me if the measured shrunken log2 fold change of RRIRVRPPRLPRPRPRPEKEPRP reaches -0.1 or more?
Response line: rule met

Prompt line: Please tell me: is the sequence RRIRNRPPRLPRPRPRPYVNPRP at or over -0.1 in terms of shrunken log2 fold change?
Response line: rule not met

Prompt line: State whether the measured shrunken log2 fold change reaches -0.1, counting equality as reaching it, for RRIRCRPPRLPRPRPRPQESPRP
Response line: rule met

Prompt line: Identify whether the reported shrunken log2 fold change of the following sequence is -0.1 or greater: RRIRGRPPRLPRPRPRPSPWPRP
Response line: rule met

Prompt line: Check the entry RRIRPRPPRLPRPRPRPIPKPRP : does shrunken log2 fold change equal or exceed -0.1?
Response line: rule met

Prompt line: Test whether the sequence RRIRRRPPRLPRPRPRPGWRPRP records shrunken log2 fold change of -0.1 or higher.
Response line: rule met

Prompt line: State whether the measured shrunken log2 fold change reaches -0.1, counting equality as reaching it, for RRIRVRPPRLPRPRPRPLTMPRP
Response line: rule not met

Prompt line: Reported shrunken log2 fold change reaches at least -0.1 for RRIRSRPPRLPRPRPRPYCQPRP ?
Response line: rule not met

Prompt line: Does the sequence RRIRQRPPRLPRPRPRPIMYPRP have recorded shrunken log2 fold change that is -0.1 or more?
Response line: rule met

Prompt line: Form field: shrunken log2 fold change at least -0.1? Entry: RRIRHRPPRLPRPRPRPTMTPRP
Response line: rule not met
